Experimental System: A disintegrin and metalloproteinase with thrombospondin motifs 5 (Homo sapiens) (UniProt Q9UNA0)
Sequence (Q9UNA0 whole entry): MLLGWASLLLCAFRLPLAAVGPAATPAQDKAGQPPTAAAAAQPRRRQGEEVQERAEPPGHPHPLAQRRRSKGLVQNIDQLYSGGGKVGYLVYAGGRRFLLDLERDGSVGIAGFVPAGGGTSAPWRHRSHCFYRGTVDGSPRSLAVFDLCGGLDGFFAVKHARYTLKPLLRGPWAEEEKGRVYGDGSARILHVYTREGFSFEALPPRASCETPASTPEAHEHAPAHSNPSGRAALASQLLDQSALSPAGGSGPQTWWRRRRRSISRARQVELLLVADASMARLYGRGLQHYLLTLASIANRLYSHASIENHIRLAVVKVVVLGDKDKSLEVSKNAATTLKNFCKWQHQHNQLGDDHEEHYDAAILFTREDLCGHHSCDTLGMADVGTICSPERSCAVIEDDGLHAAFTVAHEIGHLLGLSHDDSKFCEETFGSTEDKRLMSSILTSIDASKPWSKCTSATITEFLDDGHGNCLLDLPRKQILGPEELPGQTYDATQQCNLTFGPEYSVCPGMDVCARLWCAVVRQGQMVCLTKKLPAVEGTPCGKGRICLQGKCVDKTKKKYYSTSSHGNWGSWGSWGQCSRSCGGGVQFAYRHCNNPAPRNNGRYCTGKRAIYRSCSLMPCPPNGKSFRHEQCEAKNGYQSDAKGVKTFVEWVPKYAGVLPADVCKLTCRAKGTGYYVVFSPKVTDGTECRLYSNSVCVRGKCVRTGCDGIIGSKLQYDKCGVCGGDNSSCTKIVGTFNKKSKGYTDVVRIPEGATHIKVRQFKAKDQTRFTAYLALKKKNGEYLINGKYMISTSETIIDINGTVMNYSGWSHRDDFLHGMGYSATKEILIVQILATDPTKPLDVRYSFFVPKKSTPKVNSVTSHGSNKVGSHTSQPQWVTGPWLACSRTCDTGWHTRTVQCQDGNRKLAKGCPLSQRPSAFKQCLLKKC
Assay Info: Inhibition of ADAMTS5 at 20 uM by FRET assay
Examples of compounds with documented inhibition follow.
Measured Metric: inhibition

[[record]]
compound = "Cn1nc(C(F)(F)F)c(/C=C2\\SC(=S)NC2=O)c1Sc1ccc(Cl)cc1"
recorded_value = "47%"

[[record]]
compound = "COc1ccc(CCOc2c(/C=C3\\SC(=S)NC3=O)c(C(F)(F)F)nn2-c2ccccc2)cc1"
recorded_value = "31%"

[[record]]
compound = "COc1ccc(CSc2c(/C=C3\\SC(=S)NC3=O)c(C(F)(F)F)nn2C)cc1"
recorded_value = "53%"

[[record]]
compound = "CN1CCN(c2c(CC3SC(=S)NC3=O)c(C(F)(F)F)nn2-c2ccccc2)CC1 (stereo not given)"
recorded_value = "< 40%"

[[record]]
compound = "Cn1nc(C(F)(F)F)c(/C=C2\\SC(=S)NC2=O)c1SCc1ccccc1"
recorded_value = "44%"

[[record]]
compound = "Cn1nc(C(F)(F)F)c(/C=C2\\SC(=S)NC2=O)c1Sc1ccccc1"
recorded_value = "28%"

[[record]]
compound = "O=C1NC(=S)SC1Cc1c(C(F)(F)F)nn(-c2ccccc2)c1SCc1ccco1 (stereo not given)"
recorded_value = "42%"

[[record]]
compound = "CN1CCN(c2c(/C=C3\\SC(=S)NC3=O)c(C(F)(F)F)nn2-c2ccccc2)CC1"
recorded_value = "45%"

[[record]]
compound = "O=C1NC(=S)S/C1=C\\c1c(C(F)(F)F)nn(-c2ccccc2)c1SCc1ccco1"
recorded_value = "42%"

[[record]]
compound = "Cn1nc(C(F)(F)F)c(/C=C2\\SC(=S)NC2=O)c1SCc1cccs1"
recorded_value = "40%"

